- SUBJECT_OF_TEST: HeLa cell extract proteins (Homo sapiens, UniProt P53701)
- Construct: endogenous in cells; host or cells: HeLa cell extract
- Sequence (P53701 whole entry): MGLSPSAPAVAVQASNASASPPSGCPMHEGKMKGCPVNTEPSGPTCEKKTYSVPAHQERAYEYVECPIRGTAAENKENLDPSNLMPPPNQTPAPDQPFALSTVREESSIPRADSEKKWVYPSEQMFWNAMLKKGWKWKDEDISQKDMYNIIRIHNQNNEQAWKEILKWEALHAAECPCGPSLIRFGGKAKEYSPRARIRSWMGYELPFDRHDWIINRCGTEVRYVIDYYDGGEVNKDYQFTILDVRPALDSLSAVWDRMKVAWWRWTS
- Type: binding
- REPORTED_CONDITIONS: HeLa; protein HCCS
Lab note: compare fold changes relative to vehicle control against 0.9. Equal or greater, write Fulfilled. Smaller, write Not fulfilled.

Observe how each entry below is paired with its result.
| COMPOUND | SUBJECT_OF_TEST | CLASS |
| --- | --- | --- |
| NCCCNc1ccc(C(=O)NC(CCC(=O)O)C(=O)O)cc1 (stereo not drawn) | HeLa cell extract proteins (Homo sapiens, UniProt P53701) | Fulfilled |
| NCCOCCOCC(=O)Nc1nc2ncc(CNc3ccc(C(=O)NC(CCC(=O)O)C(=O)O)cc3)nc2c(=O)[nH]1 (stereo not drawn) | HeLa cell extract proteins (Homo sapiens, UniProt P53701) | Not fulfilled |
| CCCCCCOc1ccc(Cc2cnc(N)nc2N)cc1 | HeLa cell extract proteins (Homo sapiens, UniProt P53701) | Not fulfilled |

Now, please, on to the next compound.
Tell me whether fold changes relative to vehicle control is at least 0.9 here: Nc1nc2cccc(-c3ccccc3)c2n1Cc1ccc(Cl)c(Cl)c1
Fulfilled

###

- SUBJECT_OF_TEST: HeLa cell extract proteins (Homo sapiens, UniProt Q9UJP4)
- Construct: endogenous in cells; host or cells: HeLa cell extract
- Sequence (Q9UJP4 whole entry): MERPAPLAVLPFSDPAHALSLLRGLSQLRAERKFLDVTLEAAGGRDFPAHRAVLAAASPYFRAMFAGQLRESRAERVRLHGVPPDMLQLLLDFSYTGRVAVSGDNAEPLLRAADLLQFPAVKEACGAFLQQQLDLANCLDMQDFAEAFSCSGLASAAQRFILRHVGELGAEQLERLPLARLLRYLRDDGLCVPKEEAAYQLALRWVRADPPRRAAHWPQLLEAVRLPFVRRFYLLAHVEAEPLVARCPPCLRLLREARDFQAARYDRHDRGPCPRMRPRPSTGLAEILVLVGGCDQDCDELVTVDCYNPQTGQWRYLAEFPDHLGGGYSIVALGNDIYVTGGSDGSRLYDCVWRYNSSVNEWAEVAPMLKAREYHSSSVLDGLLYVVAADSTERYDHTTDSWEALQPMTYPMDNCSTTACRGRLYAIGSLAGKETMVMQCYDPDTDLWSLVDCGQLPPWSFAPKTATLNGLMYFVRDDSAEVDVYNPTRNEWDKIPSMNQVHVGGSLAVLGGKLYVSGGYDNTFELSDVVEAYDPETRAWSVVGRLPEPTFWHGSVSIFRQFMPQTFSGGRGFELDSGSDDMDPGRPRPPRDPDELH
- Type: binding
- REPORTED_CONDITIONS: HeLa; protein KLHL21
Threshold 1. fold changes relative to vehicle control below it: YES. fold changes relative to vehicle control at it or above: NO.

Answered examples (2):
| MOLECULE | SUBJECT_OF_TEST | CLASS |
| --- | --- | --- |
| NCCCNc1ccc(C(=O)NC(CCC(=O)O)C(=O)O)cc1 (stereo not drawn) | HeLa cell extract proteins (Homo sapiens, UniProt Q9UJP4) | YES |
| Nc1nc2cccc(-c3ccccc3)c2n1Cc1ccc(Cl)c(Cl)c1 | HeLa cell extract proteins (Homo sapiens, UniProt Q9UJP4) | NO |

Note: attention shifts to another entry.
Answer whether the molecule CCCCCCOc1ccc(Cc2cnc(N)nc2N)cc1 has fold changes relative to vehicle control strictly less than 1
NO

###

- SUBJECT_OF_TEST: HeLa cell extract proteins (Homo sapiens)
- Construct: endogenous in cells; host or cells: HeLa cell extract
- Type: binding
- REPORTED_CONDITIONS: protein GDI2; HeLa
Field: fold changes relative to vehicle control. Provide a value for each of the compounds that follow.
One number for each entry.

Use these answered entries as a reference point.
| COMPOUND | fold changes relative to vehicle control |
| --- | --- |
| Nc1nc2cccc(-c3ccccc3)c2n1Cc1ccc(Cl)c(Cl)c1 [compound 3] | 0.72 |
| CCCCCCOc1ccc(Cc2cnc(N)nc2N)cc1 [compound 1] | 1.06 |
| CCCCCCOc1cccc(Cc2cnc(N)nc2N)c1 [compound 2] | 1.81 |
| Nc1nc2c(c(=O)[nH]1)N(C=O)C(CNc1ccc(C(=O)N[C@@H](CCC(=O)O)C(=O)O)cc1)CN2 (stereo partly drawn) [LEU, leucovorin] | 0.93 |
| NCCCNc1ccc(C(=O)NC(CCC(=O)O)C(=O)O)cc1 (stereo not drawn) [compound 7] | 1.02 |

Turning now to a further record.
Read the entry NCCOCCOCC(=O)Nc1nc2ncc(CNc3ccc(C(=O)NC(CCC(=O)O)C(=O)O)cc3)nc2c(=O)[nH]1 (stereo not drawn) [compound 6] and write its reported fold changes relative to vehicle control.
1.03

###

- SUBJECT_OF_TEST: HeLa cell extract proteins (Homo sapiens, UniProt Q9H583)
- Construct: endogenous in cells; host or cells: HeLa cell extract
- Sequence (Q9H583 whole entry): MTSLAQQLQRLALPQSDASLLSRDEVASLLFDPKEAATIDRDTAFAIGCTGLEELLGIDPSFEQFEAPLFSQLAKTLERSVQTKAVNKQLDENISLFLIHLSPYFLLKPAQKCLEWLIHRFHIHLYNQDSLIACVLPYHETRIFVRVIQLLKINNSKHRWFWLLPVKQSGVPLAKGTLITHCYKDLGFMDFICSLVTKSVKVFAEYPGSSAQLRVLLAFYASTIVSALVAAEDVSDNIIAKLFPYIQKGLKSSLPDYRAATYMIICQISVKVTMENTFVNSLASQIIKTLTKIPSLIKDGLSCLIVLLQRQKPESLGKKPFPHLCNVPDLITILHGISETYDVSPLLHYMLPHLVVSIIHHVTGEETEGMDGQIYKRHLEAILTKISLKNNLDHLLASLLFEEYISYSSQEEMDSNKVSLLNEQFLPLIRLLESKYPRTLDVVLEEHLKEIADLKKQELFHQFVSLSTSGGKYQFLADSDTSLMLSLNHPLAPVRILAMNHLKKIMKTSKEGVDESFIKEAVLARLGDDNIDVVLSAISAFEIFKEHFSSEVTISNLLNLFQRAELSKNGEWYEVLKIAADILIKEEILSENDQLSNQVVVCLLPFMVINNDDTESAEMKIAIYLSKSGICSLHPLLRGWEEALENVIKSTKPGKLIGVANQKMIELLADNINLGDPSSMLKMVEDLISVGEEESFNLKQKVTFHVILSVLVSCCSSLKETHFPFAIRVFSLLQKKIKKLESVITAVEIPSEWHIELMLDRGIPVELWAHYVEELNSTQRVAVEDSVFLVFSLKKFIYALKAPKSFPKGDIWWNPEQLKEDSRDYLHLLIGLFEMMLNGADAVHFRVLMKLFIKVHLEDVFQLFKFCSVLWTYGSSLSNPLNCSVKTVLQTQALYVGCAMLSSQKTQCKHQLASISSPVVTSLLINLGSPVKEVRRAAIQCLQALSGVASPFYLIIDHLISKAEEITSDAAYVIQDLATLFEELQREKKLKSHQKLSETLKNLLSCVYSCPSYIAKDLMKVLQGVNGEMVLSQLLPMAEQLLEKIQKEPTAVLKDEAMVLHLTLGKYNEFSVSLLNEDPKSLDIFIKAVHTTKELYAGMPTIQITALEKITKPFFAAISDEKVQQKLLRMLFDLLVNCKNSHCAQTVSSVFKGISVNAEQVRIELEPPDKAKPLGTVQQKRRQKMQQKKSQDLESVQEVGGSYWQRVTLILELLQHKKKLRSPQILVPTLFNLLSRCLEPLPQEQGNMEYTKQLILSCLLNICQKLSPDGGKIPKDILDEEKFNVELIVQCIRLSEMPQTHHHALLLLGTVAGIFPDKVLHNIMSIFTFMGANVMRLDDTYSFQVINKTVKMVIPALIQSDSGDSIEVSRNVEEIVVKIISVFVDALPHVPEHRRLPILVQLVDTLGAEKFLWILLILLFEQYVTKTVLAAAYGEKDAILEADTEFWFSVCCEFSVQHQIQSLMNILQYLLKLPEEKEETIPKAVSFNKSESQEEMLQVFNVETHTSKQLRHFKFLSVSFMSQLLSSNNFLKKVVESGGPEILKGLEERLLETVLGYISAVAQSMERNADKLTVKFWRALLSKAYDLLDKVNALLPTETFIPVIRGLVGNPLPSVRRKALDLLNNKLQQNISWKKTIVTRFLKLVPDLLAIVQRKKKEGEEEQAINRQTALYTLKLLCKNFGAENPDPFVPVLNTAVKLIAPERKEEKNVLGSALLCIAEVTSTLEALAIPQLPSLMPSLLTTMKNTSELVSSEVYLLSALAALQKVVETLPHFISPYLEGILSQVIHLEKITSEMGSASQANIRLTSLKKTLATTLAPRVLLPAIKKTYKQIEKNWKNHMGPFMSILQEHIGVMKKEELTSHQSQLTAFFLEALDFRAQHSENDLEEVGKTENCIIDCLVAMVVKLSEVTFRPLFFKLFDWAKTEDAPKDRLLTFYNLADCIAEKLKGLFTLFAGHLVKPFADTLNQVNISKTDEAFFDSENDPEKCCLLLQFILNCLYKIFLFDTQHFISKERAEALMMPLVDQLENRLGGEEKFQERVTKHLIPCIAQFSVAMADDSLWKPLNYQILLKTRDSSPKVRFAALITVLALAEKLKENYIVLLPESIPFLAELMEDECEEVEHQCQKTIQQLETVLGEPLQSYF
- Type: binding
- REPORTED_CONDITIONS: HeLa; protein HEATR1
Mark 0 for fold changes relative to vehicle control values under 1, and 1 for everything at or above.

| MOLECULE | CLASS |
| --- | --- |
| CCCCCCOc1ccc(Cc2cnc(N)nc2N)cc1 | 1 |
| CCCCCCOc1cccc(Cc2cnc(N)nc2N)c1 | 1 |
| Nc1nc2c(c(=O)[nH]1)N(C=O)C(CNc1ccc(C(=O)N[C@@H](CCC(=O)O)C(=O)O)cc1)CN2 (stereo partly drawn) | 0 |
| NCCOCCOCC(=O)Nc1nc2ncc(CNc3ccc(C(=O)NC(CCC(=O)O)C(=O)O)cc3)nc2c(=O)[nH]1 (stereo not drawn) | 1 |
| Nc1nc2cccc(-c3ccccc3)c2n1Cc1ccc(Cl)c(Cl)c1 | 1 |

Kindly review the next molecule as well.
Determine whether measured fold changes relative to vehicle control meets or exceeds 1 for NCCCNc1ccc(C(=O)NC(CCC(=O)O)C(=O)O)cc1 (stereo not drawn)
1

###

- SUBJECT_OF_TEST: HeLa cell extract proteins (Homo sapiens)
- Construct: endogenous in cells; host or cells: HeLa cell extract
- Assay type: binding
- REPORTED_CONDITIONS: HeLa; protein ACOX1
Assignment: determine reported fold changes relative to vehicle control for the given compounds.
Give bare numbers.

Consider the worked cases shown below.
| COMPOUND | SUBJECT_OF_TEST | OBSERVATION_TYPE | NUMBER |
| --- | --- | --- | --- |
| Nc1nc2c(c(=O)[nH]1)N(C=O)C(CNc1ccc(C(=O)N[C@@H](CCC(=O)O)C(=O)O)cc1)CN2 (stereo partly drawn) | HeLa cell extract proteins (Homo sapiens) | fold changes relative to vehicle control | 1 |
| NCCCNc1ccc(C(=O)NC(CCC(=O)O)C(=O)O)cc1 (stereo not drawn) | HeLa cell extract proteins (Homo sapiens) | fold changes relative to vehicle control | 0.94 |
| CCCCCCOc1cccc(Cc2cnc(N)nc2N)c1 | HeLa cell extract proteins (Homo sapiens) | fold changes relative to vehicle control | 0.92 |
| CCCCCCOc1ccc(Cc2cnc(N)nc2N)cc1 | HeLa cell extract proteins (Homo sapiens) | fold changes relative to vehicle control | 0.98 |
| Nc1nc2cccc(-c3ccccc3)c2n1Cc1ccc(Cl)c(Cl)c1 | HeLa cell extract proteins (Homo sapiens) | fold changes relative to vehicle control | 1.33 |

Attention now shifts to the item below.
State its fold changes relative to vehicle control: NCCOCCOCC(=O)Nc1nc2ncc(CNc3ccc(C(=O)NC(CCC(=O)O)C(=O)O)cc3)nc2c(=O)[nH]1 (stereo not drawn)
0.99

###

- Tested on: TB09.211.1690
- PROTOCOL_DESCRIPTION: Multitargeted bead mixture competition
- Assay type: binding
- REPORTED_CONDITIONS: free ligand 100 μM, T. brucei lysate
For each of the compounds below, state its percentage of competition from bead binding.
Answers are plain numbers, in %.

| COMPOUND | NUMBER |
| --- | --- |
| Cc1ccc2nc(N)[nH]c(=O)c2c1Sc1ccncc1 | -7 |
| Nc1nc2cccc(-c3ccccc3)c2n1Cc1ccc(Cl)c(Cl)c1 | 39 |
| Nc1nc(O)c2c(CCc3ccccc3)c[nH]c2n1 | -34 |

Tell me its percentage of competition from bead binding given CN(Cc1cnc2nc(N)nc(N)c2n1)c1ccc(C(=O)N[C@@H](CCC(=O)O)C(=O)O)cc1 [MTX, methotrexate] as the entry.
51

###

- SUBJECT_OF_TEST: HeLa cell extract proteins (Homo sapiens, UniProt Q14764)
- Construct: endogenous in cells; host or cells: HeLa cell extract
- Sequence (Q14764 whole entry): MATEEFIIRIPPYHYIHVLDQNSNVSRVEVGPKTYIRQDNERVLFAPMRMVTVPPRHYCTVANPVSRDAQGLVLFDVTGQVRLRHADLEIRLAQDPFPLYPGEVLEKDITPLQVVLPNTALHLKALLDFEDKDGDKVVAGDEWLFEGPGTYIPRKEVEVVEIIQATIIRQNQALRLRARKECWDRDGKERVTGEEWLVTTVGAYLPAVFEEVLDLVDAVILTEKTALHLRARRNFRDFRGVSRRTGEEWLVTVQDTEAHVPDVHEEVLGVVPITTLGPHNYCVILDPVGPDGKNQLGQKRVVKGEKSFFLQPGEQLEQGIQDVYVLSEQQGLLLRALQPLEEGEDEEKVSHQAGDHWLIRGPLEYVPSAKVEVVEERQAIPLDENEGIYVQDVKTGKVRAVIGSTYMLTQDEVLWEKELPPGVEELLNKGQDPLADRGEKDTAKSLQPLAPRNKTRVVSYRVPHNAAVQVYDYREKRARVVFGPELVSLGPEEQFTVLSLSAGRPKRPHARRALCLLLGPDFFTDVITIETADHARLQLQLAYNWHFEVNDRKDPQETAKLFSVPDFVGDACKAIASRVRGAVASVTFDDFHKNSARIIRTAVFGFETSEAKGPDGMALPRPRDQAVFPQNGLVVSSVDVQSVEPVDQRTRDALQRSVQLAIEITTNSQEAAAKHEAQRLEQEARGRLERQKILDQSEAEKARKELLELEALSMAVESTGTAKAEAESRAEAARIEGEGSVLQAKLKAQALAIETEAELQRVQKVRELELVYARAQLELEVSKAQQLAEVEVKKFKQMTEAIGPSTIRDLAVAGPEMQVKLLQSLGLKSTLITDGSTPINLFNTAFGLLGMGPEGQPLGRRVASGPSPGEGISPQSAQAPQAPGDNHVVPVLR
- Assay type: binding
- REPORTED_CONDITIONS: HeLa; protein MVP
Sorting guide: entries reporting fold changes relative to vehicle control beneath 1 go in the Fulfilled pile, the rest go in the Not fulfilled pile.

Below are worked cases with known answers.
| MOLECULE | CLASS |
| --- | --- |
| CCCCCCOc1cccc(Cc2cnc(N)nc2N)c1 [compound 2] | Not fulfilled |
| NCCOCCOCC(=O)Nc1nc2ncc(CNc3ccc(C(=O)NC(CCC(=O)O)C(=O)O)cc3)nc2c(=O)[nH]1 (stereo not drawn) [compound 6] | Fulfilled |
| CCCCCCOc1ccc(Cc2cnc(N)nc2N)cc1 [compound 1] | Not fulfilled |

Attention now shifts to the item below.
Would you kindly verify if fold changes relative to vehicle control of NCCCNc1ccc(C(=O)NC(CCC(=O)O)C(=O)O)cc1 (stereo not drawn) [compound 7] is strictly less than 1?
Not fulfilled

###

- SUBJECT_OF_TEST: HeLa cell extract proteins (Homo sapiens)
- Construct: endogenous in cells; host or cells: HeLa cell extract
- Assay type: binding
- REPORTED_CONDITIONS: HeLa; protein HSPC152
Can you tell me fold changes relative to vehicle control for the items I'm about to list?

The examples below pair each entry with its known result.
| COMPOUND | fold changes relative to vehicle control |
| --- | --- |
| NCCOCCOCC(=O)Nc1nc2ncc(CNc3ccc(C(=O)NC(CCC(=O)O)C(=O)O)cc3)nc2c(=O)[nH]1 (stereo not drawn) | 1.36 |
| Nc1nc2cccc(-c3ccccc3)c2n1Cc1ccc(Cl)c(Cl)c1 | 1.04 |
| Nc1nc2c(c(=O)[nH]1)N(C=O)C(CNc1ccc(C(=O)N[C@@H](CCC(=O)O)C(=O)O)cc1)CN2 (stereo partly drawn) | 1.17 |

# batch size: 3; output fold changes relative to vehicle control per entry
1. CCCCCCOc1ccc(Cc2cnc(N)nc2N)cc1
2. NCCCNc1ccc(C(=O)NC(CCC(=O)O)C(=O)O)cc1 (stereo not drawn)
3. CCCCCCOc1cccc(Cc2cnc(N)nc2N)c1

1: 0.96; 2: 1.29; 3: 1.18
